# System: mice of the ddN-series
# PROCEDURE_TEXT: Analgesic test, Chemical Stimulus Method (Writhing Method)
# Format: in vivo, mouse
# Parameters: scale not given here
# MEASUREMENT_PARAMETERS: interabdominal injection, comparative value, scale not given
# Chemical Stimulus Method (Writhing Method) >= 2 gives 1, anything below gives 0

- CCN1CCC2(C)c3cc(OC)ccc3CC(C1)C2C (stereo not drawn): 0
- CC(C)CCN1CCC2(C)CC(Cc3ccc(O)cc32)C1 (stereo not drawn) [R=HO, R1=CH3, R2=H, CH2R3=drawing 45, R4=H]: 0
- CN1CCC2CC(Cc3ccccc32)C1 (stereo not drawn) [R=H, R1=H, R2=H, CH2R3=CH3, R4=H]: 1
- CC(C)=CCN1CCC2(C)CC(Cc3ccc(O)cc32)C1 (stereo not drawn) [R=HO, R1=CH3, R2=H, CH2R3=drawing 43, R4=H]: 0
- CCN1CCC2(C)CC(Cc3ccc(O)cc32)C1 (stereo not drawn) [R=HO, R1=CH3, R2=H, CH2R3=CH2CH3, R4=H]: 0
- CC1C2CN(C)CCC1(C)c1ccccc1C2O (stereo not drawn) [R=H, R1=CH3, R2=CH3, CH2R3=CH3, R4=OH]: 0
